target: SGLT-2 (Homo sapiens)
methodDescription: [14C]-AMG absorption in stable SGLT2 expressing Flp-in CHO cells (SGLT-2 activity screening assay)
conditionSummary: 14C-AMG uptake, 37° C. 1 h, 1% DMSO
Method: Example 1: [^14C]-AMG Absorption in Stable SGLT1 and SGLT2 Expressing Flp-in CHO Cells (SGLT-1 and SGLT-2 Activity Screening Assay) SGLT-1 and SGLT-2 cDNA clones were purchased from OriGene. […] The cells were ready for absorption assay once they attached after overnight culture. […] The radioactivity was assayed using MicroBeta Trilux (PerkinElmer). The data was analyzed and IC50 of the compounds was calculated using XL-fit software.
pIC50: −log10 of the molar value.

molecule	resultModifier	pIC50
OC[C@H]1O[C@@H](c2ccc(Cl)c(Cc3ccc(OCC4Cc5ccccc5O4)cc3)c2)[C@H](O)[C@@H](O)[C@@H]1O (stereo partly drawn)	=	8.39
OC[C@H]1O[C@@H](c2ccc(Cl)c(Cc3ccc(OCc4cc5ccccc5o4)cc3)c2)[C@H](O)[C@@H](O)[C@@H]1O	=	8.15
OC[C@H]1O[C@@H](c2ccc(Cl)c(Cc3ccc(O[C@H]4CCOC4)cc3)c2)[C@H](O)[C@@H](O)[C@@H]1O [A, Empagliflozin, reference compound]	=	8.18
CC1(COc2ccc(Cc3cc([C@@H]4O[C@H](CO)[C@@H](O)[C@H](O)[C@H]4O)ccc3Cl)cc2)OCc2ccccc21 (single isomer, unassigned) [Compound I-116]	=	8.41
N#Cc1ccc([C@@H]2O[C@H](CO)[C@@H](O)[C@H](O)[C@H]2O)cc1Cc1ccc(OCC2Cc3ccccc3O2)cc1 (stereo partly drawn)	<	5.70
Cc1ccc([C@@H]2O[C@H](CO)[C@@H](O)[C@H](O)[C@H]2O)cc1Cc1ccc(OCC2OCc3ccccc32)cc1 (stereo partly drawn)	=	8.77

----------
target: SGLT-2 (Homo sapiens, UniProt P31639)
Sequence (P31639 1-672): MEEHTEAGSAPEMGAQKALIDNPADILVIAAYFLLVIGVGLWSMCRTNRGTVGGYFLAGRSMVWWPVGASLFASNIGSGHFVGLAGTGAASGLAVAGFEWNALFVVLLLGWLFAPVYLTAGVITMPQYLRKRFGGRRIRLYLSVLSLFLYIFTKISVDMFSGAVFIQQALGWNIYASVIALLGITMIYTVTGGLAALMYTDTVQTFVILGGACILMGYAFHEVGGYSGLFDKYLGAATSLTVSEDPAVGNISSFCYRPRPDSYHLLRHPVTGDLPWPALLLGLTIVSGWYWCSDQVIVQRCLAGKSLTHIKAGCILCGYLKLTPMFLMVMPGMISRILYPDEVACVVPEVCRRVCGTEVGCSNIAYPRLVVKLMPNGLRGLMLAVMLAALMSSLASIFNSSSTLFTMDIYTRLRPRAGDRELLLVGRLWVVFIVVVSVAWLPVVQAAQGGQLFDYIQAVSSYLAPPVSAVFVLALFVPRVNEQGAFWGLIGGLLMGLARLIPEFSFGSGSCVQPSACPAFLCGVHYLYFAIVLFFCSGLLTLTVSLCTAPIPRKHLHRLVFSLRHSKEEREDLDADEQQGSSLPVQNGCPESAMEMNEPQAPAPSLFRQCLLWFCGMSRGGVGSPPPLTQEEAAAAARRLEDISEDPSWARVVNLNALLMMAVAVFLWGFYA
methodDescription: [14C]-AMG absorption in stable SGLT2 expressing Flp-in CHO cells (SGLT-2 activity screening assay)
Assay type: cell-based
conditionSummary: 14C-AMG uptake, 37° C. 1 h, 1% DMSO
Measured IC50 values are reported for all entries that follow.

compound	target	IC50
Cc1ccc([C@@H]2O[C@H](CO)[C@@H](O)[C@H](O)[C@H]2O)cc1Cc1ccc(OCC2Cc3ccccc3O2)cc1 (single isomer, unassigned) [Compound I-27]	SGLT-2 (Homo sapiens, UniProt P31639)	4.3 nM
CC1(C)OC(COc2ccc(Cc3cc([C@@H]4O[C@H](CO)[C@@H](O)[C@H](O)[C@H]4O)ccc3Cl)cc2)c2ccccc21 (stereo partly shown) [Compound I-63]	SGLT-2 (Homo sapiens, UniProt P31639)	5.6 nM
OC[C@H]1O[C@@H](c2ccc(Cl)c(Cc3ccc(OCC4Cc5cccc(F)c5O4)cc3)c2)[C@H](O)[C@@H](O)[C@@H]1O (stereo partly shown) [Compound I-34]	SGLT-2 (Homo sapiens, UniProt P31639)	4.5 nM
Cc1ccc([C@@H]2O[C@H](CO)[C@@H](O)[C@H](O)[C@H]2O)cc1Cc1ccc(OCC2(C)OCc3ccccc32)cc1 (stereo partly shown) [Compound I-112]	SGLT-2 (Homo sapiens, UniProt P31639)	8 nM
OC[C@H]1O[C@@H](c2ccc(Cl)c(Cc3ccc(OCCC4Cc5ccccc5O4)cc3)c2)[C@H](O)[C@@H](O)[C@@H]1O (stereo partly shown) [Compound I-60]	SGLT-2 (Homo sapiens, UniProt P31639)	38 nM
OC[C@H]1O[C@@H](c2ccc(Cl)c(Cc3ccc(OCc4cc5c(F)cccc5o4)cc3)c2)[C@H](O)[C@@H](O)[C@@H]1O [Compound I-7]	SGLT-2 (Homo sapiens, UniProt P31639)	14 nM
OC[C@H]1O[C@@H](c2ccc(F)c(Cc3ccc(OCC4Cc5ccccc5O4)cc3)c2)[C@H](O)[C@@H](O)[C@@H]1O (stereo partly shown) [Compound I-21]	SGLT-2 (Homo sapiens, UniProt P31639)	13 nM

Source of measurements: patent US9914724B2
